assayProtocol: basal RPMI8226 mitochondrial membrane potential changes, profiling panel, cell-based, JC-1 fluorescence, 24 h, 100 nL compound (AID 1169); also: test concentration not given here
condition: RPMI8226 myeloma, JC-1 mitochondrial potential fluorescence, higher = more signal
Kindly return 1 if reported z-score is no lower than -0.03; return -1 if it is lower.

COc1ccc([Si](C)(C)[C@H]2[C@H](CCO)O[C@@]3(C(=O)N(Cc4cccc(N5CCCCC5=O)c4)c4ccccc43)[C@@H]2C)cc1 | -1
CC(C)C(=C=CC[C@@H](O)c1ccccc1OCCO)C[C@@H](O)COCc1ccccc1 | 1
CCOc1cc(C(O)C2C=CC3C(=O)N(C4CCCCC4)C(=O)C3N2Nc2ccc(OC)cc2)ccc1O (stereo not drawn) | -1
O=C1NC(=O)C2C1C=CC(C(O)c1ccc(Br)cc1)N2Nc1ccccn1 (stereo not drawn) | 1
Cc1ccc(S[C@]2(C(=O)NCC(F)(F)F)CC(=O)N(Cc3ccccc3)[C@@H]2c2ccc(CO)cc2)cc1 | 1
CCOC(=O)C[C@H]1[C@H](OC(=O)Cc2ccc3c(c2)OCO3)[C@@H](NC(=O)Cc2ccc(OC)cc2)c2cc(OCCCO)ccc2N1C(=O)c1ccccc1 | 1
COc1c(C)cc(-c2cc3c(c(-c4ccccc4)n2)[Si](C(C)C)(C(C)C)OC3)cc1C | 1
C[n+]1ccc(CCCO)cc1 | -1

###

assayProtocol: MM1S cell viability effects, profiling panel, calcein-AM fluorescence, 48 h, basal (AID 1165);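 also: viability of MM1S multiple myeloma cells under basal unstimulated conditions; test concentration not given here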
condition: higher = more signal
# Lookup of reported z-score keyed by entry
readoutType: z-score

CCOC(=O)C[C@H]1[C@H](OC(=O)c2ccccc2-c2ccccc2)[C@@H](NC(=O)CC(C)C)c2cc(OCCCO)ccc2N1C(=O)c1ccc2ccccc2n1 | -1.32
NC(=O)NCC#Cc1ccc2c(c1)[C@]1(C(=O)N2)[C@H](C(=O)O)[C@H]2C(=O)O[C@H](c3ccccc3)[C@H](c3ccccc3)N2[C@@H]1c1ccccc1OCCO | 1.33
Cc1ccc(S[C@]2(C(=O)NC3CC3)CC(=O)N(Cc3ccccc3Cl)[C@@H]2c2ccc(CO)cc2I)cc1 | -2.36

###

System: glycogen synthase kinase-3 (GSK3A per assay name; protocol says GSK3B)
assayProtocol: GSK3 binders on small-molecule microarrays, primary screen, biochemical, small-molecule microarray, 635 nm fluorescence, GSK3A (AID 1103); also: the record names both GSK3A and GSK3B
condition: small-molecule microarray binding, fluorescence 635 nm; higher = more signal
Measured composite z-score accompanies every entry in the list below.
readoutType: composite z-score

CC(C)c1ccc(NN2C(C(O)c3ccco3)C=CC3C(=O)N(c4ccccc4)C(=O)C32)cc1 (stereo not given) | 1.3
COc1ccccc1CN1C(=O)c2ccccc2[C@](Cc2ccccc2I)(C(=O)NC(C)C)[C@@H]1c1ccc(CO)cc1 | 1.3
[N-]=[N+]=NCc1ccccc1C[C@@]1(C(=O)NCCN2CCOCC2)N=C(c2ccc(OCCCO)cc2)O[C@@H]1c1ccccc1N=[N+]=[N-] | 1.08
Cc1ccc(C(C)CC(O)C2C=CC3C(=O)N(c4ccccc4)C(=O)C3N2Nc2ccc(C(C)C)cc2)o1 (stereo not given) | 0.777
C=CCC(OC(C)=O)[C@@H]1[C@@H](N(Cc2cc3ccccc3o2)C(=O)Cc2ccc(F)cc2)c2cc(OCCCO)ccc2N1C(=O)c1ccc2ccccc2n1 (stereo not given in full) | -0.497
C[C@H]1ON(c2ccc(C(=O)OC(C)(C)C)cc2)[C@@H](c2ccc(O)cc2)[C@@H]1C(=O)N1C(=O)OC[C@@H]1c1ccccc1 | 1.28
O=C1O[C@@H](c2ccccc2)[C@@H](c2ccccc2)N2[C@@H](c3ccccc3OCCO)[C@]3(C(=O)Nc4ccc(C#CCCO)cc43)[C@@H](C(=O)Nc3nc4ccccc4s3)[C@H]12 | 1.28
CC(C)OC(=O)CC(=O)CC(O)c1cccc(C#N)c1 (stereo not given) | 0.646
O=C1c2ccccc2[C@](Cc2ccccc2I)(C(=O)NCCN2CCOCC2)[C@H](c2ccc(CO)cc2)N1Cc1ccccc1 | 1.04
CCCc1cccc(=O)o1 | 1.04
COCCOC(=O)N1C(=O)[C@@]2(c3cc(C#CC4=CCCCC4)ccc31)[C@H](C(=O)N1CCN(c3ncccn3)CC1)[C@H]1C(=O)O[C@H](c3ccccc3)[C@H](c3ccccc3)N1[C@@H]2c1ccc(O)cc1 | 1.27
COC(=O)C1(Cc2ccccc2)C=C2C(=C(c3ccccc3)C(=O)C2C)CN1 (stereo not given) | -0.731
O=C1O[C@@H](c2ccccc2)[C@@H](c2ccccc2)N2[C@@H](c3ccc(O)cc3)[C@]3(C(=O)Nc4ccc(C#CCCO)cc43)[C@@H](C(=O)Nc3nc4ccccc4s3)[C@H]12 | 1.13
O=C1NCC(=O)N2[C@@H]1C[C@@H](C(=O)O)[C@H]2c1ccc(O)cc1 | 1.32
COc1ccc(C(O)C2C=CC3C(=O)N(c4ccccc4)C(=O)C3N2Nc2ccccc2)cc1OCc1ccccc1 (stereo not given) | 1.29
